Origin of measurements: the nanobody polyreactivity screen of Harvey et al. (2022)

PROTOCOL: yeast display, Sf9 membrane polyspecificity reagent, FACS + sequencing; frameworks hold sequencing errors
PROPERTY_NAME: polyreactivity (PSR sort gate)

Completed entries (count: 8):
QVHLLERGGGLVQAGGSLRLSCMASGSILGDSMSWYRQAPGKEHELVATIYDGGITYYADSMKGRFTISRDNAKNSVYLQMNSLRPEDTAVYYCGASFEGYSYHVYCGQGTQVTVSS | low polyreactivity
QVQLQESGGGLVLAGGSLRLSCSASGNISVYGSMGWYRQAPGKEREFVATIDPGTNTNYADSMKDRFTISRDNAKNTVYLQMNSLKPEDTAVYYCAVEAGSDWPYRYWGQGTQVTVSS | low polyreactivity
QVQLVESGGGVVQAGGSLRLSCAGSGFTFIYYAMGWYRQAPGTERELVAAITTSRGRTDSADSVKGRVTISRDNAKNTVYLQMNSLKPEDTAVYYCNAVVYTKYYFIPWYPYDYWGHGTQVTVSS | high polyreactivity
QVQLVESGGGLVQAGGSLRLSCAASGSNFSYYAMGWYRQAPGKERELVAAITWRSGRTYYADSVKGRFTISRDNAKNTVYLQMNSLKPEDTAVYYCAAYWWRVKYHGYYYWGQGTQVTVSS | high polyreactivity
QVQLVESGGGLVQAGGSLRLSCAASGRILYGYTMGWYRQAPGKERELVAAISSNGDSTYYADSVKGRFTISRDNAKNTVYLQLNSLKPEDTAVYYCAAVSIGPGEYDYWGQGTQVTVSS | low polyreactivity
QVQLVESGGGLVQAGGSLRLSCAASGSIFYGNAMGWDRQAPGNARELVAAISWNGGSTYYADSVKGRFTISRDNAKNTVYLQMNSLKPEDTAVYYSNADYYYEVDSWGQGTQVTVSS | low polyreactivity
QVQLVESGGGLVQAGGILRLSCAAYGSISYGYGMGWYRQPPGKERELVATLSGRAGSTYYADSVKGRFTISRDNAKYTVYLQMNSLKPEDTAVYYCAAKWWRLTWTAGYGGRCYGYWGQGSQVTVSS | low polyreactivity
QVQLVESVGGLVQAGCSLRLSCAASGSTFEVYAMGWYRQAPGKESELVATITWSGGSTYYADSVKGRFTISRDNAKTTVYLQMNSLKPEDTAVYYCNAVIRYYFWGKYYLYYYWGQGTQVTVSS | high polyreactivity

With those in mind, consider the next sequence.
Which polyreactivity (PSR sort gate) value belongs to QVQLVESGGGLVQAGGSLRLSCAASGSTFVRNAMGWYRQAPGKERELVAAISRSGGRTYYADSVKGRFTISRDNAKNTVYLQMNSLKPEDTAVYYCAADVYDAGVRYDYWGQGTQVTVSS ? high polyreactivity

----------
PROTOCOL: yeast display, Sf9 membrane polyspecificity reagent, FACS + sequencing; frameworks hold sequencing errors
PROPERTY_NAME: polyreactivity (PSR sort gate)

Sample records with polyreactivity (PSR sort gate):
QVQLVESGGGLVQAGGSLRLSCAASGRIFDAKVMGWYRQAPGKERELVAAISASAGSTSYADSVKGRFTISRDNAKNTVYLQMNSLKPEDTSVYYCAADPYQLWHYYYFGMDYWGQGTQVTVSS | low polyreactivity
QVQLVETGGGLVQAGGSLRLSCAPSGIIISHYAKGWYRQAPGKETELVAAISSRGGSTYYADSVKGRFTISRDIAKNTVYLQMNSLKPEDTAVYYCATTDPYDSSYYIYYYWGQGTQVTVSS | high polyreactivity
QVQLVESGAGLVQAGGSLRLSCAASGSIFGFYAMGWYRQAPGKERELVASISSSGDSTYYADSVKGRFTISRDNAKYTVYLPMNSLKPEDTAVYYCAAVVYDIYGYEFDYWGLGTQVTVSS | low polyreactivity
QVQLEESVGGLVQAGGSLRLSCAASGITFYDYTMGWYRQAPGKERELVAAISSRGGSTYYADSVKGRFTISRDNAKNTVYLQMNSLKPEDTAVYYCNARYNSWRYLAQYNYWGQGTQVTVSS | high polyreactivity
QVQLVESGGGLVQAGGSLRLSCAASGFIFYYYDMGWYRQAPGKERELVAAITYDGGSTYYADSVKGRFTISRDNAKNTVYLQMNSLKPEDTAVYYCNAVYGQYYDYWGQGTQVTVSS | low polyreactivity
QVQLVESGGGLVQAGGSLRLSCAASGFIFSYYAMGWYRQAPGKERELVAAINWSGGSTYYADSVKGRFTISRDNAKNTVFLQMNSLKPEDTAVYYCAAYSSWHPYDYWGQGTQVTVSS | high polyreactivity

If you can, please state the reported polyreactivity (PSR sort gate) value of QVQLVESGGGLVQAGGSLRLSCAASGSILSDNAMGWYRQAPGKERELVASIRSGDITKYADSVKGRFTFSRDNAKNTVYLQMNSLKPEDTAVYYCASAGRVLYTRKYYGWRYLNDYWGQGTQVTVSS . low polyreactivity

How about this sequence: QVQLVESGGGLVQAGGSLRISCAASGYIFKYAMGWYRQAPGKERELVAAISRRGGSTYYADSVKGRFTISRDNAKNTVYLQMNSLKPEDTEVYYCAARLPGYYGIGDYWGQGTQVTVSS high polyreactivity

Entry QVQLVESGGGLVQAGGSLRLSCAASGFIFRRYVMGWTRQAPGKERELVAAISNGGGRTYYADSVKGRFTISRDNAKNTVYLQMNSLKPEDTAVYYCAAYPRGPLAPDYDYWGQGTQVTVSS please high polyreactivity

Also QVQLVESGGGLVQAGGSLRLSCAASGGIFSYYAMGWYRQAPGKEREFVAAIDWGGGSTYYADSVKGRFTISRDNAKNTVYLQMNSLKPEDTAVYYCAAEIYPIGWDDYDYWGQGTQVTVSS ? low polyreactivity

Repeat with QVQLVESGGGLVQAGGSLRLSCAASGSIFSLYTMGWYRQAPGKERELVARITTSGGTTRYADSVKGRFTISRDTSKNTVYLQMISLKPEDTAVYYCAADRSPFWRGYVRYNYWGQGTQVTVSS high polyreactivity

Try this sequence too: QVQLVESGGGLVQAGGSLRLSCAASGRTFGINAMGWYRQAPGKERELVAVISFGEGGTYYADSVKGRFTISRDNAKNTVYLQMNSLKPEDTAVYYCATDYQSTSVWGGHFVINPYDYWGLGTQVTVSS low polyreactivity

----------
PROTOCOL: yeast display, Sf9 membrane polyspecificity reagent, FACS + sequencing; frameworks hold sequencing errors
PROPERTY_NAME: polyreactivity (PSR sort gate)

// known answers, use as guide
QVQLVESGGGLVQAGGSLRLSCAASGFTFGLYVMGWYRQAPGKERELVAVISRSGGGTYYADSVKGRFTISRDNAKNTVYLQMNSLKPEDSAVYYCAKPFSYITGWYNYWGQGTQVTVSS | high polyreactivity
QVQLVESGGGLVQAGGSLRLSCAASGRTFAPYTMGWYRQAPGKERELVAVITRRDGRTYYADSVKGRFTISRDNAKNTVYLQMNSLKPEDTAVYYCCFFPADWYRPVRDLRTDSDYWGQGTQVTVSS | low polyreactivity
QVQLVESGGGLVQAGGSLRLSCAASGFISPGYAMGWYRQAPGKERELVAAITRDGGTYYADSVKGRFTISRDNAKNTVYLQMNSLKPEDTAVYYCAAEGSFRKFDYWGQGTQVTVSS | low polyreactivity
QVQLVESGGGLVQAGGSLRLSCAASGSTFQRYVMGWYRPAPGKERELVAAITRTGASTYYADSVKGRFTISRDYAKNTVDLQMNSRKPEDTAGYYCAARYPLGSYTYDFWGQGTQVTVSS | high polyreactivity

Need polyreactivity (PSR sort gate) of QVQLVESGVGLVQAGGSLRLSCAASGRTIDHYAMGWYRQAPGKERELVAAISTTGGSTYYADSVKGRFTISRDNAKNTVYLQMNSLKPEDTAVYYCAARGLRTGGYWGQCTQVTVSS , thanks. high polyreactivity

----------
PROTOCOL: yeast display, Sf9 membrane polyspecificity reagent, FACS + sequencing; frameworks hold sequencing errors
PROPERTY_NAME: polyreactivity (PSR sort gate)

Some solved cases for reference:
QVQLVESGGGLVQAGGSLRLSCAASGRIFVPNAMGWYSQAPGKERELVAAINWGGGSTYYADSVKGRFTISRDNAKNTVYLQMNSLKPEDTAVYYCAADHPYTIGVLPNQQFDYWGQGTQVTVSS | low polyreactivity
QVQLVESGGGLVQAGGSLRLSCAASGRIFFYNAMGWYRQAPGKERELVATIRGGGSTNYADSVKGRFTISRDNAKNTVYLQMNSLKPEDTAVYYCAARRGSYSVTEYWGQGTQVTVSS | high polyreactivity
QVQLVESGGGLVQAGGSLRLSCAASGSIFYYNSMGWYRKAPGKEREFVAAISARGGSTYYADSVKGRFTISRDNAKNTVYLQLNSLKPEDSAVYYCAASWGMGTYSDSTFWGGYYYWGQGTQVTVSS | low polyreactivity
QVQLVESGGGLFQAGGSLRLSCAASGSTFPKYEMGWYRQAPGKERELVATISSGTRTYYADSVKGRFTISRDNAKNTVYLQMNSLKPDDTAVYYCAASYQPRKGAHYGYWGQGSQVTVSS | high polyreactivity
QVQLVESGGGLVQAGGSLRLSCAASGRTFGNYVMGWYRQAPGKERELVAAIRSGTNTYYADSVKGRFTISLDNAKNTVYLQMNSLKPEVTAVYYCNKYVRTTDYDYWGQGIQVTVSS | high polyreactivity

Which measured polyreactivity (PSR sort gate) value corresponds to QVQLVESGGGLVQAGGSLRLIGAASGRSLYVYEMGWYRQAPGNDRELVAAISRGGGRTYYADSVKRRFTISRDKAKNTVYVQRNSLKPEDTAVYYGAAPLLIGVSTYRIAPRSGYWGQGTQVTLSS ? high polyreactivity

Moving on to QVQLVESGGGLVQAGGSLPLSCAASGSTFSPYDMGWYIQAPGKDRELVAVITGSDGTYYADSVKGRFTITRDNAKNTVYVQMNSLKPEDTAVYYCATDWNFGRWYTLGVEMDYWGQGTQVTVSS low polyreactivity

Another: QVQLVESGGGLVQAGGSLRLSCAASGRTFVGNAMGWYRQAPGKERELVATITGSGGRTYYADSVKGRFTISRDNAKNTVYLQMNSLKPEDTAVYYCAAKRSRYRYDYWGQGTQVTVSS high polyreactivity

And QVQLVESGGGLVQAGGSLRLSCAASGSIVTSYAIGWYRQAPGQERELVATITRRGGSTYYADSVKGRFTISRDNSKNTVYLQMNSLKPEDTAVSYCTARSSTIVYAGDYWGLGTQVTVSS ? low polyreactivity

And for QVQLVESGGGLVQAGGSLRLSCAASGLTFGAYAMGWYRQAPGKERELVSAISWSGNTYYADSVKGRFTISRDNAKNTVYLQMNSLKPEDTAGYYCAVRSYGHGFDYWGQGTQVTVSS ? high polyreactivity
